The reader will find reported interaction score values listed item by item below.
Target: T1, 4H1406-bN
T1 chain: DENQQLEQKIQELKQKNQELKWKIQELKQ
Assay: two-hybrid library CCNG1;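 also: natural log of median RNA to DNA barcode read ratio; higher means stronger binding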
propertyLabel: interaction score

binder="DENQQLEQKIQELKQKIQELKWENQELEQ [4H1387-bN]" testvalue=-0.625
binder="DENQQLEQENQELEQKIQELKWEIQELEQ [4H1193-bN]" testvalue=-0.457
binder="DENQQLEQEIQELEQKIQELKWKNQELKQ [4H1072-bN]" testvalue=-0.693
binder="DENQQLEQKIQELKQKNQELKWKIQELKQ [4H1406-bN]" testvalue=-0.553

From: paper PMC10397247
